Ref: ChEMBL document CHEMBL1137617

# Subject of test: Calcitonin gene-related peptide type 1 receptor (Homo sapiens)
# Sequence (Q16602 whole entry): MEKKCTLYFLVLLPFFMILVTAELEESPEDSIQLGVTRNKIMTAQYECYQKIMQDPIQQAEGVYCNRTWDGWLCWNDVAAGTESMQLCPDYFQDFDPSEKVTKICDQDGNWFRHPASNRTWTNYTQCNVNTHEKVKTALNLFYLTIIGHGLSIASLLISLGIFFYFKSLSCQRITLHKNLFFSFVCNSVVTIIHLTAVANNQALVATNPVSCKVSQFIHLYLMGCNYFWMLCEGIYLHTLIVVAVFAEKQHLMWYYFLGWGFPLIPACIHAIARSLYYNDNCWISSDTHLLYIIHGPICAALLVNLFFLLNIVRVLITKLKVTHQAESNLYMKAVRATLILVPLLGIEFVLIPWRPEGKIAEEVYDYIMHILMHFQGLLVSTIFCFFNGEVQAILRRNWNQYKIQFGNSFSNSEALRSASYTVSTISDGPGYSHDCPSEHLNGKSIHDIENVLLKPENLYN
# Assay: Antagonist activity at human CL receptor expressed in E10 cells assessed as CGRP-stimulated cAMP production
pIC50: −log10 of the molar value.
Experimental endpoint: pIC50

// sample `O=C(N[C@@H]1CC[C@@H](c2cccc(F)c2F)CN(CCF)C1=O)N1CCC(n2c(=O)[nH]c3ncccc32)CC1` , its pIC50 was 8.30

(P) COCCN1C[C@H](c2cccc(F)c2F)CC[C@@H](NC(=O)N2CCC(n3c(=O)[nH]c4ncccc43)CC2)C1=O
(Q) CN1C[C@H](c2cccc(F)c2F)CC[C@@H](NC(=O)N2CCC(n3c(=O)[nH]c4ncccc43)CC2)C1=O
Select one. Lower pIC50: P or Q # reply format: chosen label
Q
(Q: 8.10, P: 8.70)
